# PROTOCOL_DETAILS: soluble on expression in E. coli; label from the status in PepcDB or PDB records
REPORTED_ENDPOINT: soluble on expression in E. coli

>>> result_value("MAAARIPMSDNLPWKTWTPDDLAPPPAEFVPMAESEETIIEEVEPSLEQQLAQLQMQAHEQGYQAGIAEGRQQGHEQGYQEGLAQGLEQGLAEAKAQQAPIHARMQQLVSEFQTTLDALDSVIASRLMQMALEAARQVIGQTPTVDNSALIKQIQQLLQQEPLFSGKPQLRVHPDDLQRVDDMLGATLSLHGWRLRGDPTLHPGGCKVSADEGDLDASVATRWQELCRLAAPGVV")
"soluble"
>>> result_value("MGSDKIHHHHHHMLTDHRCTKYTDCSSCSFYQRDIFKYRLYPKGYVIPQTRCMQNMVFFLVKGEIWLNSEEHPDTTFRGGQFVLQPIGSKVECKVLDYTECIIYLFERPQNICDNRFNKGISIVENERQQPIVMTMVPPIQLFIEGMKLYLNDDLRCSGLMQAKRSEMVYLLNCYYPIKELAAFYAPIYRYSHSFQYFVMQNYQKAKDVETFAQLGGYSVPTFRRIFKDTFGEPAYQWMLKRKCQDIHNDLIMTELSISEICYKYGFESLSNFSHFCRANFGQSPRSVRSLKDENT")
"not soluble"
>>> result_value("HHHHHSSGLVPRGSHMTNPAYFPQLSQLDVSGEMESTYEDIRLTLRVPWVAFGCRVLATFPGYLPLAWRRSAEALITRYAEQAADELRERSLLNIGPLPNLKERLYAAGFDDGEIEKVRRVLYAFNYGNPKYLLLITALSESMQMRPVGGAEVSSELRASIPKGHPKGMDPLLPLVDATKASTEVQGLLKRVADLHYHHGPASDFQALANWPKVLQIVTDEVLAPVARTEQYDAKSRELVTRARELVRGLPGSAGVQRSELMSMLTPNELAGLTGVLFMYQRFIADITISIIHITECLDGAEAASKSPFPI")
"soluble"
>>> result_value("MGSDKIHHHHHHMDYLDKLTHLAQVRGEINIRCEFQGEWQISHQEKDAGKGIFHLIEQGECWLTLNEKQFHLKEGDVFFLPQNQPHSMHYSANKRADIPTKKSHQGLFELHQIGRGTPDLKMFCGNFYYQQDALLTASMPEYLHINLCDTPIHPLVQLFLQEAQKNDAGTKSVVDALSNVLLIYILRHAIQQNLIEQGILFALQDKRLNTALIAILQQPQNDWHIEQLAELATMSRANFIRIFQQHIGMSPGRFLTKVRLQSAAFLLKQSQQSVLAIALEVGYQSEAHFCKVFKNYYQLSPSQYRKSVSL")
"not soluble"
>>> result_value("MGSDKIHHHHHHMAIGLSTYAFFWRASSRVPNPLGLAAMLEQTAESGAGVFQICDYAAVEALSPAELEKLRQRAVDLGIQLELGTRGLATDHLTRYLTMARALDVRFIRTMFNSATHKPTQDEALALLRCVLPEFEQYNIQLGLETYEQVKTRDVLAVVDAIDSPALGICLDPGNCVAALEYPHEVIELTASRVVNLHIKDFAFARQEGWVGFTYSGCLLGTGLLDYDALHQTIRPNERNINQIVEHWLPWQASAEETCRLEDAWTRHSLNYLYTRNPYANRSSHIL")
"not soluble"
>>> result_value("MGSDKIHHHHHHAEITLLKQDPQAGDPLSRLNFTVGGSIRPQFNMMTGDGDKGSYKRNGFDGGTRFRFAADYYLFDDISWISYYELGVNIPALFDWDNHYAEGANNTTRRMLYTGLKSDTWGTLTYGQQNSIYYDVVGVKTDIWDYDMIGQAPGNGINGDYDGSYRSRNMLKYKKTVGDVDLYGSYLFEDSEYLPGNGLRYKRKGGGSVGADYHIMKDLTWGTAWNYTRAEMRDPSSADSKTYDQNIVGTALSWTPDNWTFSFGGGWYQNFLTTKKTDVHNYFAGDAWGIEYFAGYKFPINQYAVKSIQPYFMGDRLEYVNGRNYQRIDNGLGISFQLDYGFRVDYEHVFTSSTDNLGDMNLVRLRYDF")
"not soluble"
>>> result_value("MAHIIRRVSIKDVENFISMLAKIYDESPYMFYTPGEYDPSVTSASKQLEEYITSPHKVIFVAESDEQLVGFAFVNTTPFQRIKHVAKIDLGVKKLYQHRGIGQALLDAIMAWCLNNQIHRIEANVPLNNQPALELFKSADFQIEGVLKDKLFIDGKYYDDYMMAKILN")
"soluble"
>>> result_value("MTEYERPQTPGVVTHDAVVLAGGAARRLGGADKPGVRVGGRALLDRVLAACAGAATTVVVADPRATARPVVWAREEPPGAGPVAALDAGLRRTTAAYVVVLSADLPFLDEETVRRLLSTLQASGTEGVLLTDPGGRDQPLVAAYRSAALRRELAELAAGHGTLAGLPLRVLVAALDLTRVSDPVASFDCDTWDDIAAARSRIREHGNVLDEWISAVKDELGIDLAVDTGILLDLARDAAHGVARPAAPLTTFLVGYAAAQAGGGPEAVAEAARKAAALALRWADEAAAEAGPDAGLEHHHHHH")
"not soluble"
>>> result_value("MACLCLANISWATVCANSTGVAEDEHYDLSNVFNSTNNQPGQIVVLPEKSGWVGVSAICPPGTLVNYTYRSYVTNFIVQETIDNYKYMQLNDYLLGAMSLVDSVMDIQFPPQNYIRMGTDPNVSQNLPFGVMDSRLIFRLKVIRPFINMVEIPRQVMFTVYVTSTPYDPLVTPVYTISFGGRVEVPQNCELNAGQIVEFDFGDIGASLFSAAGPGNRPAGVMPQTKSIAVKCTNVAAQAYLTMRLEASAVSGQAMVSDNQDLGFIVADQNDTPITPNDLNSVIPFRLDAAAAANVTLRAWPISITGQKPTEGPFSALGYLRVDYQ")
"not soluble"
>>> result_value("MPTPPVSVLVAQMGEGPAPLYARVKQMIIQQIDNGSWPPHHRVPSESELVNELGFSRMTINRALRELTAEGLLVRMQGVGTFVAEPKGRSALFEVNNIADEIAARGHQHSCQVITLAEEAAGSERALALDMREGQRVFHSLIVHFENGVPVQIEDRYVNAAIAPDYLKQDFTRQTPYAYLSQVAPLTEGEHVVEAILAEPEECTLLQIDRGEPCLLIRRRTWSGRQPVTAARLIHPGSRHRLEGRFSK")
"not soluble"

* * *

# PROTOCOL_DETAILS: soluble on expression in E. coli; label from the status in PepcDB or PDB records
REPORTED_ENDPOINT: soluble on expression in E. coli

>>> result_value("SMSETFDVELTKNVQGLGITIAGYIGDKKLEPSGIFVKSITKSSAVEHDGRIQIGDQIIAVDGTNLQGFTNQQAVEVLRHTGQTVLLTLMRRGETSV")
"soluble"
>>> result_value("SLSFTLEEEDITGTWYVKAMVVDKDFPEDRRPRKVSPVKVTALGGGNLEATFTFMREDRCIQKKILMRKTEEPGKFSAYGGRKLIYLQELPGTDDYVFYCKDQRRGGLRYMGKLVGRNPNTNLEALEEFKKLVQHKGLSEEDIFMPLQTGSCVLEH")
"soluble"
>>> result_value("MTALTEGAKLFEKEIPYITELEGDVEGMKFIIKGEGTGDATTGTIKAKYICTTGDLPVPWATILSSLSYGVFCFAKYPRHIADFFKSTQPDGYSQDRIISFDNDGQYDVKAKVTYENGTLYNRVTVKGTGFKSNGNILGMRVLYHSPPHAVYILPDRKNGGMKIEYNKAFDVMGGGHQMARHAQFNKPLGAWEEDYPLYHHLTVWTSFGKDPDDDETDHLTIVEVIKAVDLETYR")
"soluble"
>>> result_value("MVKITNNVHQFGYEPAEFLSKKLTFTDIVHPEDLDRIVKEMVAFLKNDIVYFEQDYRIFTKGGDIRWVYEKTILKTDDTGLPTLAKGYLLDITER")
"not soluble"
>>> result_value("MVPPKLKQALELFKSLPKELRSQVLLEYAAKVPPPPPGVELERVHECQTPFFVHADVEGGKVRLYFHVPDEAPTVKAFAGLLREGLEGESPEAVLEVPPGFYRGYGLEEFFTPLRLRGLEAALLRLQAQVRKALTS")
"soluble"
>>> result_value("GEKTYVKRLVKILLLGAGESGKSTFLKQMRIIHGQDFDQRAREEFRPTIYSNVIKGMRVLVDAREKLHIPWGDNKNQLHGDKLMAFDTRAPMAAQGMVETRVFLQYLPAIRALWEDSGIQNAYDRRREFQLGESVKYFLDNLDKLGVPDYIPSQQDILLARRPTKGIHEYDFEIKNVPFKMVDVGGLRSERKRWFECFDSVTSILFLVSSSEFDQVLMEDRQTNRLTESLNIFETIVNNRVFSNVSIILFLNKTDLLEEKVQVVSIKDYFLEFEGDPHCLRDVQKFLVECFRGKRRDQQQRPLYHHFTTAINTENIRLVFRDVKDTILHDNLKQLMLQ")
"soluble"
>>> result_value("MINNSNDIGFIQDIAGLDKLRQKAVNGDENAGQSALTAAARQFESIFTSMMLKSMRDANSDFKSDLMSSQNEDLYRQMLDEQMASEFSSSGSLGLADMIVAQLSTGQTASEQKGEDGFQEAMRRVEHARKTASERSNEDLVAAVYPLRKTQAVQSTQFDSRHSFVTKLKPYADKAARMLGVDSSLLIAQAALETGWGQKMVKNARGNSNNLFNIKADRSWQGDKVATQTLEYHNNVPVVEKAAFRSYASFDESFNDYVRFLENNPRYTNALDHGGNSERFIHGIHRAGYATDPQYADKVLRVKAQIDQMNLL")
"not soluble"
>>> result_value("MIPYRQLVRMSHLAARFVGGADVHVVDPLVDLRNVFEQTDQLKIALECRNLTVDVEKVKNEYDEWFETYQKWKQADKESISQLKKELRAKKDGLLNALALPNLVHHAGKKQTPLLKPSKHAQYLAQQGLMRIDKQNHVVHLVGYPVVVQKMIREQLVDLFPGCQPISPSYFARAAILEALNIDQSTCIPFTDDSSHFPLTYLVGNSLPAITSPFLKTSFGEKNEWPISVQCTGASYTEKKNQVDLGNARQRMKHCALWMSKSAEELEGIINDANVRVGAYLDEGLDLEVKVREVRGSELKNYESQAFVVENRGLSLSRISRIGDYVSKRLNIQYSGSPATEKSEKSDGFVQMVYVETDIDRILARLVDDLIEGKEPPKYIRDAIKKSF")
"not soluble"
>>> result_value("MGSDKIHHHHHHLFLNSLKLKDFRNYKSLQVDFSNSINVLIGDNAQGKTNLLEAIYILSMARSHRDNNDRDLINWSSDFSDITGEVQSKMGKFPLEVRITRTGKKVFVNHLTENRLSDYIGNLHTVLFAPEDLDLVKGSPGVRRKFIDSEFGQMSANYLFNLLQYRSVLKNRNAYLKNIKWIGNNPKIDEDYLKVLNDQLIDFGSEIIFQRFVLVKELEKYSYQIHKAISRNEKLTIKYASFSGIDDQSTKEEISKIFNNQLLKNKTRELFLKSTSVGPHHDDLKFSINGKEVGSFASQGQQRTTALSVRLAEIEMMKYETGEYPILLLDDVLSELDGDRQTQLLNFIQDKVQTFLTTTSLSDVERDLIKDPKIYQVKGGTLVNG")
"not soluble"
>>> result_value("MGSDKIHHHHHHMNTKKESALSFPSAGIESFGERLKELMGDESLRAFANAIDTSEGGVRKWFTQSTMPSFDKMVRIARRYNVNLEWLCTGEGPKFPGETAAYESVICKTEEFSEEYALIDGYHTQVSTGHGAQWDNERVRRKLAFRSKWLRYRGLQPENLRVVFAKGDSMEPTIHSGDSILVDITDANLSDGSIFVLRIGDDLFAKRVQVHIDGSITIISDNKEYREQRVPVAELGLLSVVGKVVWIGKDVK")
"not soluble"
>>> result_value("MNVVQVEYLNVAEIKALLNSTISKLNPRYTSNYMIVTAILTGARLSEIAGLTWNDINFNFNTININKSYDYFAKSFKPTKNKSSNRIIKINNTLCDVLKELRTNNTDLVFKNKRGLIPTSNAVNKALRARLEELNINRRNFHFHSLRHSHVAFLLSQGIDIYPIAQRLGHSDITTTTRTYAYLIEEYKDKNDAIIIAGLDKLEHHHHHH")
"not soluble"
>>> result_value("MTSNKQLINERDHAESALADMYFAATGDEPEWSNWFGFSDAVDAVVDRIADLEAKQPSPVVPEGLVKAVRFYEQVKRENPPVETEAWKDAIDWVLKESCQAVNIDTNGD")
"soluble"
>>> result_value("QIVLTQSPAIMSASLGDRVTMTCTASSSVSSSYLHWYQQKPGSSPKLWIYSTSNLASGVPARFSGSGSGTSYSLTISSMEAEDAATYYCHQFHRSLTFGSGTKLE")
"soluble"

The measurements presented in this section are drawn from the DeepSol protein solubility set.
